Biological target: Adenosine receptor A1 (Homo sapiens)
Sequence (whole entry): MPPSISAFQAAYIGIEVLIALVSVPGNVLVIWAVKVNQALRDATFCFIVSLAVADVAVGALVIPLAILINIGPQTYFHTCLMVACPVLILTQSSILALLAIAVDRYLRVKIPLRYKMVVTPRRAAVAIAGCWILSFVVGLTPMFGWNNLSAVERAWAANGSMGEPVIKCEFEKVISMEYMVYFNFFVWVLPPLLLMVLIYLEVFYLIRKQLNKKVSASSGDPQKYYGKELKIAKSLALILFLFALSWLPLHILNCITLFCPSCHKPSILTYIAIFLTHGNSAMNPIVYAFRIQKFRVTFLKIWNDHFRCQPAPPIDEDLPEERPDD
Assay: Displacement of [3H]DPCPX from human adenosine A1 receptor expressed in CHO cells at 1 uM by scintillation counting
Assay type: cell-based
Classify by measured inhibition: satisfied if it is equal to or exceeds 2%, not satisfied if it is smaller.

Can `COc1ccc(-c2cc3c4ccccc4nc(N)n3n2)cc1` be said to have inhibition at or above 2%?
satisfied

Can `Nc1nc2ccccc2c2cc(-c3ccccc3)nn12` be said to have inhibition at or above 2%?
not satisfied

Can `O=C(OCc1ccccc1)c1cc2c3ccccc3[nH]c(=O)n2n1` be said to have inhibition at or above 2%?
satisfied

Can `Oc1ccccc1-c1n[nH]c(-c2ccccc2)n1` be said to have inhibition at or above 2%?
satisfied

Can `Oc1nc2ccccc2c2cc(-c3cccs3)nn12` be said to have inhibition at or above 2%?
satisfied

Value source: ChEMBL document CHEMBL2311495
